target: Neuronal Nicotinic Receptors; test: Binding of [^3 H]-methylcarbamylcholine ([^3 H]-MCC) to neuronal nicotinic receptors (Table 1); set-up: species or system rat; conditions: [^3 H]-MCC (3 nM), whole rat brain membranes, 60 min at 4° C.; Cheng-Prusoff from IC50
Counter-ions that a name gives are not always drawn.
Property: Ki; scope: individual molecules

- Molecule: "CN1CCC[C@H]1c1cccnc1 [nicotine]"
  System Name: "Neuronal Nicotinic Receptors"
  Unit String: "µM"
  Ki: 0.001
- Molecule: "CC[C@H]1CC(c2cccnc2)N(C)C1 (stereo partly drawn) [Example 6, 4'-(S)-Ethylnicotine dioxalate]"
  System Name: "Neuronal Nicotinic Receptors"
  Unit String: "µM"
  Ki: 0.053
- Molecule: "CC1CN(C)C(c2cccnc2)C1C (stereo not drawn) [Example 13, 3',4'-Dimethylnicotine oxalate]"
  System Name: "Neuronal Nicotinic Receptors"
  Unit String: "µM"
  Ki: 0.105
- Molecule: "CN1C[C@@H](CC#N)CC1c1cccnc1 (stereo partly drawn) [Example 16, 4'-(R)-Cyanomethylnicotine oxalate]"
  System Name: "Neuronal Nicotinic Receptors"
  Unit String: "µM"
  Ki: 0.053
- Molecule: "CN1CCC(CF)C1c1cccnc1 (stereo not drawn) [Example 9, 3'-Fluoromethylnicotine oxalate]"
  System Name: "Neuronal Nicotinic Receptors"
  Unit String: "µM"
  Ki: 0.106
- Molecule: "CN1C[C@H](OS(C)(=O)=O)CC1c1cccnc1 (stereo partly drawn) [Example 19, 4'-(R)-Methanesulfonyoxynicotine oxalate]"
  System Name: "Neuronal Nicotinic Receptors"
  Unit String: "µM"
  Ki: 0.276
- Molecule: "CN1C[C@@H](Cc2ccccc2)CC1c1cccnc1 (stereo partly drawn) [Example 5, 4'-(S)-Benzylnicotine dioxalate]"
  System Name: "Neuronal Nicotinic Receptors"
  Unit String: "µM"
  Ki: 0.135
- Molecule: "CO[C@@H]1CC(c2cccnc2)N(C)C1 (stereo partly drawn) [Example 2, 4'-(R)-Methoxynicotine oxalate]"
  System Name: "Neuronal Nicotinic Receptors"
  Unit String: "µM"
  Ki: 0.025
- Molecule: "CN1C[C@@H](C#N)CC1c1cccnc1 (stereo partly drawn) [Example 11, 4'-(S)-Cyanonicotine dioxalate]"
  System Name: "Neuronal Nicotinic Receptors"
  Unit String: "µM"
  Ki: 0.007
- Molecule: "CN1C[C@@H](F)CC1c1cccnc1 (stereo partly drawn) [Example 3, 4'-(S)-Fluoronicotine dioxalate]"
  System Name: "Neuronal Nicotinic Receptors"
  Unit String: "µM"
  Ki: 0.035
- Molecule: "CC1CCN(C)C1c1cccnc1 (stereo not drawn) [Example 10, 3'-methylnicotine dioxalate]"
  System Name: "Neuronal Nicotinic Receptors"
  Unit String: "µM"
  Ki: 0.023
- Molecule: "CN1C[C@H](CF)CC1c1cccnc1.O=C(O)C(=O)O (stereo partly drawn) [Example 8, 4'-(R)-Fluoromethylnicotine oxalate]"
  System Name: "Neuronal Nicotinic Receptors"
  Unit String: "µM"
  Ki: 0.01
- Molecule: "CC(=O)O[C@@H]1CC(c2cccnc2)N(C)C1 (stereo partly drawn) [Example 12, 4'-(R)-Acetyloxynicotine oxalate]"
  System Name: "Neuronal Nicotinic Receptors"
  Unit String: "µM"
  Ki: 0.162
- Molecule: "C[C@@H]1CC(c2cccnc2)N(C)C1.O=C(O)C(=O)O.O=C(O)C(=O)O (stereo partly drawn) [Example 4, 4'-(R)-Methylnicotine dioxalate]"
  System Name: "Neuronal Nicotinic Receptors"
  Unit String: "µM"
  Ki: 0.0042
- Molecule: "CN1C[C@H](O)CC1c1cccnc1 (stereo partly drawn) [Example 1, 4'-(R)-Hydroxynicotine oxalate]"
  System Name: "Neuronal Nicotinic Receptors"
  Unit String: "µM"
  Ki: 0.029
